molecular target: HIV-1 NL43 Env (HIV-1 strain NL43); assay: cell-based or functional assay
IC50 neutralization, 18 hour virus/Ab incubation values for the binders below.
Measured Attribute: IC50 neutralization, 18 hour virus/Ab incubation

{"Binder": "1495_C14 (PGC14) (antibody, human IgG1, lambda, V domains shown) VH: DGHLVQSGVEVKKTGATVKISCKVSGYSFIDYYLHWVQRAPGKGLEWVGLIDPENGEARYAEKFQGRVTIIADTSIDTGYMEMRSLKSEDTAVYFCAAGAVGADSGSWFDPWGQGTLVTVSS VL: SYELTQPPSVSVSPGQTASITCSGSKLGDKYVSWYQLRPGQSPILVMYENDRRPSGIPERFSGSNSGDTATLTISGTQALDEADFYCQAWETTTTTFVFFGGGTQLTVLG", "Recorded Value": "0.15 mg/L"}
{"Binder": "1496_C09 (PG9) (TCN-109) (antibody, V domains shown) VH: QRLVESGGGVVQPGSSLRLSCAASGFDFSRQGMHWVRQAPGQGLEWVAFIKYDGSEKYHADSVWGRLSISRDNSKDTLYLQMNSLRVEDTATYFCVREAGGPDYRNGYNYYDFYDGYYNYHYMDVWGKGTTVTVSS VL: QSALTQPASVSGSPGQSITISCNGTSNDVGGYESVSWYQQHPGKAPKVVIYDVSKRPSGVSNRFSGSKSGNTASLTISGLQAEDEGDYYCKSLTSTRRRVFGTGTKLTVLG", "Recorded Value": "38 mg/L"}
{"Binder": "1443_C16 (PG16) (TCN-116) (antibody, V domains shown) VH: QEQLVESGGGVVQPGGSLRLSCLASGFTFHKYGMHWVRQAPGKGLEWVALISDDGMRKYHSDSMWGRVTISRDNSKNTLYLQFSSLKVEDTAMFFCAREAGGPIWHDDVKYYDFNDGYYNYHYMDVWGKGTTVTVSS VL: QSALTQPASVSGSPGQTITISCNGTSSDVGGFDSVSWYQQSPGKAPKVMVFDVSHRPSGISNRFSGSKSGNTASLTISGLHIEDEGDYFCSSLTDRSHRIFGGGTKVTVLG", "Recorded Value": "4.99 mg/L"}
